# SYSTEM: SIRT1 (Homo sapiens)
# METHOD_SUMMARY: Trp mass spectrometry assay (SIRT1 activation)
# Assay type: biochemical
# MEASUREMENT_CONTEXT: Trp mass spectrometry assay; EC1.5 = concentration giving 150% activation of SIRT1
METRIC: Tryp AVG EC1.5 (μM)

Would you please look over these solved cases?
>  <STRUCTURE_NOTATION>
CC(=O)O[C@H]1CN2C[C@H]1N(C(=O)Nc1ccccn1)c1nc(-c3cccc(C(F)(F)F)c3)ccc12

>  <RESULT>
C (EC1.5>25 μM)

$$$$
>  <STRUCTURE_NOTATION>
O=C(Nc1cccnc1)N1c2nc(-c3cccc(Cl)c3)ccc2N2C[C@@H](O)[C@H]1C2

>  <RESULT>
B (EC1.5 1-25 μM)

$$$$
>  <STRUCTURE_NOTATION>
O=C(Nc1cccc(-c2cccnc2)n1)N1c2nc(-c3cccc(C(F)(F)F)c3)ccc2N2CC[C@H]1C2

>  <RESULT>
A (EC1.5<1 μM)

$$$$
>  <STRUCTURE_NOTATION>
Cc1cncc(NC(=O)N2c3nc(-c4cncc(C(F)(F)F)c4)ccc3N3C[C@@H](O)[C@H]2C3)c1

>  <RESULT>
B (EC1.5 1-25 μM)

$$$$
>  <STRUCTURE_NOTATION>
O=C(Nc1cnccn1)N1c2nc(-c3cccc(Cl)c3)ccc2N2C[C@@H](O)[C@H]1C2

>  <RESULT>
C (EC1.5>25 μM)

$$$$

Value of measured Tryp AVG EC1.5 (μM) for the entry O=C(Nc1cc(-c2cnco2)ccn1)N1c2nc(-c3cncc(C(F)(F)F)c3)ccc2N2C[C@@H](O)[C@H]1C2 : B (EC1.5 1-25 μM)

Value of measured Tryp AVG EC1.5 (μM) for the entry O=C(NCCCc1cccnc1)N1c2nc(-c3cccc(C(F)(F)F)c3)ccc2N2CC[C@H]1C2 : B (EC1.5 1-25 μM)

Value of measured Tryp AVG EC1.5 (μM) for the entry O=C(NCCCCn1ccnc1)N1c2nc(-c3cccc(C(F)(F)F)c3)ccc2N2CC[C@H]1C2 : B (EC1.5 1-25 μM)

Value of measured Tryp AVG EC1.5 (μM) for the entry O=C(Nc1ccncn1)N1c2nc(-c3cncc(C(F)(F)F)c3)ccc2N2C[C@@H](O)[C@H]1C2 : B (EC1.5 1-25 μM)

----------
# SYSTEM: SIRT1 (Homo sapiens, UniProt Q96EB6)
# Sequence (Q96EB6 whole entry): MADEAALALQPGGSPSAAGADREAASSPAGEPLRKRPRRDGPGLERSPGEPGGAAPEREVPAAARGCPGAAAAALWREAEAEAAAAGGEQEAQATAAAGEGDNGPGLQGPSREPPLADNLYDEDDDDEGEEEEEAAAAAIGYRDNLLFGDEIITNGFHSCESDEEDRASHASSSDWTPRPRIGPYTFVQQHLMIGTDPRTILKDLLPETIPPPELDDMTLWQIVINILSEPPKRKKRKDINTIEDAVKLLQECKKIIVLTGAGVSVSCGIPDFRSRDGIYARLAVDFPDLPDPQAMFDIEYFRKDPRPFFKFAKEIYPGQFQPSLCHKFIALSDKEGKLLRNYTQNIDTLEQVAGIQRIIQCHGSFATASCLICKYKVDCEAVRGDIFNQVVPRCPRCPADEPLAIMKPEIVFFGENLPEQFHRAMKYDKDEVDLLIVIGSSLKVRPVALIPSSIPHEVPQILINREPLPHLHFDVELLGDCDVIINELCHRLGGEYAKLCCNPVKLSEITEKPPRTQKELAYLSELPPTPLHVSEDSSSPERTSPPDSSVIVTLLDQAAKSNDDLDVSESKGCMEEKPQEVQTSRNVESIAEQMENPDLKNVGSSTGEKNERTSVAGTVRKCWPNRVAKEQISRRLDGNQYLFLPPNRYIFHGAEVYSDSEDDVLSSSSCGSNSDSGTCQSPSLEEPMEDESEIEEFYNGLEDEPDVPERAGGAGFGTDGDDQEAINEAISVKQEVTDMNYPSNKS
# METHOD_SUMMARY: Trp mass spectrometry assay (SIRT1 activation)
# Assay type: biochemical
# MEASUREMENT_CONTEXT: Trp mass spectrometry assay; EC1.5 = concentration giving 150% activation of SIRT1

>  <STRUCTURE_NOTATION>
CC(C)(C)c1nnc(NC(=O)N2c3nc(-c4cccc(C(F)(F)F)c4)ccc3N3CC[C@H]2C3)s1

>  <SYSTEM>
SIRT1 (Homo sapiens, UniProt Q96EB6)

>  <Tryp AVG EC1.5 (μM)>
B (EC1.5 1-25 μM)

$$$$
>  <STRUCTURE_NOTATION>
O=C(Nc1cncc(-c2cnco2)c1)N1c2nc(-c3cncc(F)c3)ccc2N2CC[C@H]1C2

>  <SYSTEM>
SIRT1 (Homo sapiens, UniProt Q96EB6)

>  <Tryp AVG EC1.5 (μM)>
B (EC1.5 1-25 μM)

$$$$

----------
A collection of compounds and their measured Emax
# SYSTEM: SIRT1 (Homo sapiens, UniProt Q96EB6)
# METHOD_SUMMARY: Trp mass spectrometry assay (SIRT1 activation)
# Format: biochemical
# MEASUREMENT_CONTEXT: Trp mass spectrometry assay; percent maximum fold activation of SIRT1; read-out: Tryp % Fold Act
# Description: Mass spectrometry based assays were used to identify modulators of SIRT1 activity. […] The peptide was labeled with the fluorophore 5TMR (excitation 540 nm/emission 580 nm) at the C-terminus. The sequence of the peptide substrate was based on p53 with several modifications. […] The Trp mass spectrometry assay was conducted as follows. […] Test compound was added at varying concentrations to this reaction mixture and the resulting reactions were monitored. […]

Would you please look over these solved cases?
>  <COMPOUND>
O=C(Nc1ccncn1)N1c2nc(N3CCCC(C(F)(F)F)C3)ccc2N2CC[C@H]1C2 (stereo partly shown)

>  <Emax>
≥ 150%

$$$$
>  <COMPOUND>
O=C(Nc1cncc(F)c1)N1c2nc(-c3cccc(OC(F)(F)F)c3)ccc2N2CC[C@H]1C2

>  <Emax>
≥ 150%

$$$$
>  <COMPOUND>
O=C(Nc1ccc(F)cn1)N1c2nc(-c3ccnc(C(F)(F)F)c3)ccc2N2CC[C@H]1C2

>  <Emax>
≥ 150%

$$$$

Short answer on SIRT1 (Homo sapiens, UniProt Q96EB6) for Cc1nn(C)cc1NC(=O)N1c2nc(-c3cccc(C(F)(F)F)c3)ccc2N2CC[C@H]1C2 , Emax: ≥ 150%

Short answer on SIRT1 (Homo sapiens, UniProt Q96EB6) for CN(C)c1cc(NC(=O)N2c3nc(N4CCCC(C(F)(F)F)C4)ccc3N3CC[C@H]2C3)ccn1 (stereo partly shown) , Emax: ≥ 150%

Short answer on SIRT1 (Homo sapiens, UniProt Q96EB6) for C#Cc1ccc(NC(=O)N2c3nc(-c4cccc(C5(C(F)(F)F)N=N5)c4)ccc3N3CC[C@H]2C3)nc1 , Emax: ≥ 150%

Short answer on SIRT1 (Homo sapiens, UniProt Q96EB6) for Cn1ncc2cc(NC(=O)N3c4nc(-c5cccc(OC(F)(F)F)c5)ccc4N4CC[C@H]3C4)ccc21 , Emax: ≥ 150%

----------
# SYSTEM: SIRT1 (Homo sapiens, UniProt Q96EB6)
# METHOD_SUMMARY: Trp mass spectrometry assay (SIRT1 activation)
# Format: biochemical
# MEASUREMENT_CONTEXT: concentration of test compound that results in 150% activation of SIRT1; Trp peptide substrate
METRIC: Tryp AVG EC1.5 (μM)

Would you please look over these solved cases?
>  <COMPOUND>
O=C(Nc1cnccn1)N1c2nc(-c3ccnc(N4CCC(F)(F)C4)c3)ccc2N2CC[C@H]1C2

>  <Tryp AVG EC1.5 (μM)>
A (EC1.5<1 μM)

$$$$
>  <COMPOUND>
O=C(Nc1cncc(Br)c1)N1c2nc(-c3cccc(C(F)(F)F)c3)ccc2N2CC[C@H]1C2

>  <Tryp AVG EC1.5 (μM)>
A (EC1.5<1 μM)

$$$$
>  <COMPOUND>
O=C(Nc1cccc(C2(C(F)(F)F)N=N2)c1)N1c2nc(-c3cccc(C(F)(F)F)c3)ccc2N2CCC[C@H]1C2

>  <Tryp AVG EC1.5 (μM)>
A (EC1.5<1 μM)

$$$$
>  <COMPOUND>
O=C(Nc1cccnc1)N1c2nc(-c3cncc(F)c3)ccc2N2CCC1CC2

>  <Tryp AVG EC1.5 (μM)>
B (EC1.5 1-25 μM)

$$$$
>  <COMPOUND>
O=C(Nc1ccc(F)cn1)N1c2nc(-c3ccnc(N4CCC(C(F)(F)F)C4)c3)ccc2N2CC[C@H]1C2 (stereo partly shown)

>  <Tryp AVG EC1.5 (μM)>
A (EC1.5<1 μM)

$$$$
>  <COMPOUND>
O=C(Nc1ccccn1)N1c2nc(-c3cccc(CC(O)CO)c3)ccc2N2CC[C@H]1C2 (stereo partly shown)

>  <Tryp AVG EC1.5 (μM)>
A (EC1.5<1 μM)

$$$$
>  <COMPOUND>
O=C(Nc1ccccn1)N1c2nc(-c3cccc(C(F)(F)F)n3)ccc2N2CC[C@H]1C2

>  <Tryp AVG EC1.5 (μM)>
B (EC1.5 1-25 μM)

$$$$
>  <COMPOUND>
O=C(Nc1ccc(F)cn1)N1c2nc(-c3cccc(N4CCC(F)(F)C4)c3)ccc2N2CC[C@H]1C2

>  <Tryp AVG EC1.5 (μM)>
B (EC1.5 1-25 μM)

$$$$
>  <COMPOUND>
Cc1ccncc1-c1ccc2c(n1)N(C(=O)Nc1cccnn1)[C@H]1CCCN2C1

>  <Tryp AVG EC1.5 (μM)>
C (EC1.5>25 μM)

$$$$
>  <COMPOUND>
COc1cc(NC(=O)N2c3nc(-c4cccc(CC(O)CO)c4)ccc3N3CC[C@H]2C3)ncn1 (stereo partly shown)

>  <Tryp AVG EC1.5 (μM)>
B (EC1.5 1-25 μM)

$$$$

Value of measured Tryp AVG EC1.5 (μM) for the entry Cn1cc(-c2ccc3c(n2)N(C(=O)Nc2cccnc2)[C@H]2CCN3C2)cn1 : B (EC1.5 1-25 μM)

Value of measured Tryp AVG EC1.5 (μM) for the entry Cc1ccc(-c2ccc3c(n2)N(C(=O)Nc2cccnc2)[C@H]2CCCN3C2)cn1 : B (EC1.5 1-25 μM)

Value of measured Tryp AVG EC1.5 (μM) for the entry CC(C)N1CCCN(c2ccc3c(n2)N(C(=O)Nc2ccncn2)[C@H]2CCCN3C2)CC1 : C (EC1.5>25 μM)

Value of measured Tryp AVG EC1.5 (μM) for the entry O=C(Nc1cccnc1)N1c2nc(-c3cccc(Cl)c3)ccc2N2CCC[C@H]1C2 : A (EC1.5<1 μM)

Value of measured Tryp AVG EC1.5 (μM) for the entry O=C(Nc1ccncn1)N1c2nc(-c3cccc(N4CCOCC4)c3)ccc2N2CCC[C@H]1C2 : B (EC1.5 1-25 μM)

Value of measured Tryp AVG EC1.5 (μM) for the entry N#Cc1cccc(-c2ccc3c(n2)N(C(=O)Nc2cnccn2)[C@H]2CCCN3C2)c1 : A (EC1.5<1 μM)
